test system: U-87 MG; assay: cells; conditions: Homo sapiens, 72 h
Attribute: IC50

- molecule: "C[C@@H]1CN(c2nc(N3CCOCC3)c3sc(CO)cc3n2)C[C@H](C)O1"
  experimental_target: "U-87 MG"
  relation_operator: "="
  IC50 [µM]: 6.59
- molecule: "C[C@@H]1CN(c2nc(N3CCOCC3)c3sc(-c4ccccn4)cc3n2)C[C@H](C)O1"
  experimental_target: "U-87 MG"
  relation_operator: "="
  IC50 [µM]: 4.45
- molecule: "CC(O)c1cc2nc(N3C[C@@H](C)O[C@@H](C)C3)nc(N3CCOCC3)c2s1 (stereo partly specified)"
  experimental_target: "U-87 MG"
  relation_operator: "="
  IC50 [µM]: 3.29
- molecule: "OCc1cc2nc(N3CCSCC3)nc(N3CCOCC3)c2s1"
  experimental_target: "U-87 MG"
  relation_operator: ">"
  IC50 [µM]: 25
- molecule: "C[C@@H]1CN(c2nc(N3CCOCC3)c3sc(C(N)=O)cc3n2)C[C@H](C)O1"
  experimental_target: "U-87 MG"
  relation_operator: ">"
  IC50 [µM]: 25
- molecule: "C[C@@H]1COCCN1c1nc(N2CCOCC2)c2sc(CO)cc2n1"
  experimental_target: "U-87 MG"
  relation_operator: ">"
  IC50 [µM]: 25
- molecule: "OCc1cc2nc(N3CCOc4ccccc43)nc(N3CCOCC3)c2s1"
  experimental_target: "U-87 MG"
  relation_operator: "="
  IC50 [µM]: 21.2
- molecule: "C[C@@H]1CN(c2nc(N3CCOCC3)c3sc(-c4cnc(N)nc4)cc3n2)C[C@H](C)O1"
  experimental_target: "U-87 MG"
  relation_operator: ">"
  IC50 [µM]: 25
- molecule: "C[C@@H]1CN(c2nc(N3CCOCC3)c3sc(-c4ccc[nH]4)cc3n2)C[C@H](C)O1"
  experimental_target: "U-87 MG"
  relation_operator: ">"
  IC50 [µM]: 25
- molecule: "C[C@@H]1CN(c2nc(N3CCOCC3)c3sc(-c4ccccc4O)cc3n2)C[C@H](C)O1"
  experimental_target: "U-87 MG"
  relation_operator: "="
  IC50 [µM]: 9.88
- molecule: "C[C@@H]1CN(c2nc(N3CCOCC3)c3sc(-c4ccoc4)cc3n2)C[C@H](C)O1"
  experimental_target: "U-87 MG"
  relation_operator: ">"
  IC50 [µM]: 25
- molecule: "C[C@@H]1CN(c2nc(N3CCOCC3)c3sc(-c4ccco4)cc3n2)C[C@H](C)O1"
  experimental_target: "U-87 MG"
  relation_operator: "="
  IC50 [µM]: 12.8
- molecule: "CCC(O)c1cc2nc(N3C[C@@H](C)O[C@@H](C)C3)nc(N3CCOCC3)c2s1 (stereo partly specified)"
  experimental_target: "U-87 MG"
  relation_operator: ">"
  IC50 [µM]: 25
- molecule: "C[C@@H]1CN(c2nc(N3CCOCC3)c3sc(-c4cccnc4)cc3n2)C[C@H](C)O1"
  experimental_target: "U-87 MG"
  relation_operator: ">"
  IC50 [µM]: 25
- molecule: "C[C@@H]1CN(c2nc(N3CCOCC3)c3sc(-c4cn[nH]c4)cc3n2)C[C@H](C)O1"
  experimental_target: "U-87 MG"
  relation_operator: ">"
  IC50 [µM]: 25
- molecule: "CS(=O)(=O)N1CCN(c2nc(N3CCOCC3)c3sc(CO)cc3n2)CC1"
  experimental_target: "U-87 MG"
  relation_operator: ">"
  IC50 [µM]: 25
- molecule: "O=C(O)c1cc2nc(N3CCOCC3)nc(N3CCOCC3)c2s1"
  experimental_target: "U-87 MG"
  relation_operator: "="
  IC50 [µM]: 2.44
- molecule: "OCc1cc2nc(N3CCOCC3)nc(N3CCOCC3)c2s1"
  experimental_target: "U-87 MG"
  relation_operator: "="
  IC50 [µM]: 17.5
- molecule: "C[C@@H]1CN(c2nc(N3CCOCC3)c3sc(-c4ccc(N)nc4)cc3n2)C[C@H](C)O1"
  experimental_target: "U-87 MG"
  relation_operator: ">"
  IC50 [µM]: 25
- molecule: "C[C@@H]1CN(c2nc(N3CCOCC3)c3sc(-c4ccn[nH]4)cc3n2)C[C@H](C)O1"
  experimental_target: "U-87 MG"
  relation_operator: "="
  IC50 [µM]: 0.43
- molecule: "Cc1c(-c2ccn[nH]2)sc2c(N3CCOCC3)nc(N3C[C@@H](C)O[C@@H](C)C3)nc12"
  experimental_target: "U-87 MG"
  relation_operator: "="
  IC50 [µM]: 8.76

====

biological target: PI3-kinase p110-alpha/p85-alpha (Homo sapiens); assay: Inhibition of full length recombinant human N-terminal His-tagged PI3K p110alpha/p85alpha expressed in baculovirus using PIP2 as substrate after 1 hr by kinase-glo luminescence assay
Sequence (P27986 whole entry): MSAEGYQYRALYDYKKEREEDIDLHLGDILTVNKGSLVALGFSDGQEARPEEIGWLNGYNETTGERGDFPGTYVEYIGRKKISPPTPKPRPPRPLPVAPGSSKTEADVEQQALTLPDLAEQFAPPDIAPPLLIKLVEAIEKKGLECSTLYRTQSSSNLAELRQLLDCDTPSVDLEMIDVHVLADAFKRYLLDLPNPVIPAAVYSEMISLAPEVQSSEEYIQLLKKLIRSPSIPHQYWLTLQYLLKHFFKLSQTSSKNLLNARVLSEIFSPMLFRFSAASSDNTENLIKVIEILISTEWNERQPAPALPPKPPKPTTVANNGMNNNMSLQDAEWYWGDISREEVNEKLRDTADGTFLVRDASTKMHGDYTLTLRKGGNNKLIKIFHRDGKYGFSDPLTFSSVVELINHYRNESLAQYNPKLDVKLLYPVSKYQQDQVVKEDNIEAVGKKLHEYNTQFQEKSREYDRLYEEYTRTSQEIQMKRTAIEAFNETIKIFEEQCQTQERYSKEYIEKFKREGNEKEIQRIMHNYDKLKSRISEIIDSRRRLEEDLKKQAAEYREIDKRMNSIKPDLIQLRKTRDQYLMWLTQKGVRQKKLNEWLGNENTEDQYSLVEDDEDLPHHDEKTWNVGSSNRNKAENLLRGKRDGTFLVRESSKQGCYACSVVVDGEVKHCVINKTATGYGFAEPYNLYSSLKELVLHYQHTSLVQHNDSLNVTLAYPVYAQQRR
Sequence (P42336 whole entry): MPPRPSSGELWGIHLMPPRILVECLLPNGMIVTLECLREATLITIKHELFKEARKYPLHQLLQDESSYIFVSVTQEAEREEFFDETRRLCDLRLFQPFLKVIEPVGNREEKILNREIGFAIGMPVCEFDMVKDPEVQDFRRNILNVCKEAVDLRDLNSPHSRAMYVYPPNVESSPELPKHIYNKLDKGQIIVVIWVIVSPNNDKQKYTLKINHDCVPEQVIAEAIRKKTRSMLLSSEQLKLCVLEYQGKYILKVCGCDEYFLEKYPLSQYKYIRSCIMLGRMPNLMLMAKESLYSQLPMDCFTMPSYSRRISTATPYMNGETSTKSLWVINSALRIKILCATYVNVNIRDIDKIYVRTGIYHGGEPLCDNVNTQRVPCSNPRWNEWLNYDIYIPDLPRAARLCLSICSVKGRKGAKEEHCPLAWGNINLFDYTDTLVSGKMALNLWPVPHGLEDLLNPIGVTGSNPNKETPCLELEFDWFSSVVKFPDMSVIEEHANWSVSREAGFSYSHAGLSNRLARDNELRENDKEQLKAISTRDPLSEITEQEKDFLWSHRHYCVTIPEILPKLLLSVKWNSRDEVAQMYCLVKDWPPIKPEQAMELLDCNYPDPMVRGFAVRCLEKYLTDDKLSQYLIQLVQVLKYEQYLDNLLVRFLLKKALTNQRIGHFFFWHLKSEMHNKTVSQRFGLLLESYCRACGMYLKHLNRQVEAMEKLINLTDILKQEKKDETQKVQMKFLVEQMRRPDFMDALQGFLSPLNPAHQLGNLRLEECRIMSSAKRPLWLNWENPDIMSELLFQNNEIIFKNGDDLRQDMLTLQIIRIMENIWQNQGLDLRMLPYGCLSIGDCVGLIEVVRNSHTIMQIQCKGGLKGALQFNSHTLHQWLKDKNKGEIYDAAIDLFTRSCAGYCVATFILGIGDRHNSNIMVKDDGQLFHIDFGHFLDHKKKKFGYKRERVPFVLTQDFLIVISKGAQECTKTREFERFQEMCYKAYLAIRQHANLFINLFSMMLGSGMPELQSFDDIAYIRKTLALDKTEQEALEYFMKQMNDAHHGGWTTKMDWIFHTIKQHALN
pIC50: −log10 of the molar value.

- compound: "C[C@@H]1CN(c2nc(N3CCOCC3)c3sc(-c4cnc(N)nc4)cc3n2)C[C@H](C)O1"
  relation_operator: "="
  pIC50: 7.62
- compound: "c1cc2nc(N3CCOCC3)nc(N3CCOCC3)c2s1"
  relation_operator: "="
  pIC50: 5.73
- compound: "C[C@@H]1CN(c2nc(N3CCOCC3)c3sc(-c4ccccc4)cc3n2)C[C@H](C)O1"
  relation_operator: "<"
  pIC50: 5.00
- compound: "CS(=O)(=O)N1CCN(Cc2cc3nc(N4CCOCC4)nc(N4CCOCC4)c3s2)CC1"
  relation_operator: "="
  pIC50: 5.32
- compound: "c1cc2c(N3CCOCC3)nc(N3CCOCC3)nc2[nH]1"
  relation_operator: "="
  pIC50: 5.21
- compound: "OCc1cc2nc(N3CCOCC3)nc(N3CCOCC3)c2s1"
  relation_operator: "="
  pIC50: 6.67
- compound: "C[C@@H]1CN(c2nc(N3CCOCC3)c3sc(-c4cncnc4)cc3n2)C[C@H](C)O1"
  relation_operator: "="
  pIC50: 5.02
- compound: "C[C@@H]1CN(c2nc(N3CCOCC3)c3sc(-c4cnn(C)c4)cc3n2)C[C@H](C)O1"
  relation_operator: "="
  pIC50: 5.30
- compound: "C[C@@H]1CN(c2nc(N3CCOCC3)c3sc(-c4cccnc4)cc3n2)C[C@H](C)O1"
  relation_operator: "="
  pIC50: 6.55
- compound: "C[C@@H]1CN(c2nc(N3CCOCC3)c3sc(-c4cccc5[nH]ncc45)cc3n2)C[C@H](C)O1"
  relation_operator: "<"
  pIC50: 5.00
- compound: "C[C@@H]1CN(c2nc(N3CCOCC3)c3sc(-c4ccccn4)cc3n2)C[C@H](C)O1"
  relation_operator: "="
  pIC50: 6.16
- compound: "C[C@@H]1CN(c2nc(N3CCOCC3)c3sc(CO)cc3n2)C[C@H](C)O1"
  relation_operator: "="
  pIC50: 6.67
- compound: "O=C(O)c1cc2nc(N3CCOCC3)nc(N3CCOCC3)c2s1"
  relation_operator: "="
  pIC50: 6.63
- compound: "c1nc2c(N3CCOCC3)nc(N3CCOCC3)nc2[nH]1"
  relation_operator: "<"
  pIC50: 5.00
- compound: "OCc1cc2nc(N3CCSCC3)nc(N3CCOCC3)c2s1"
  relation_operator: "="
  pIC50: 6.60
- compound: "C[C@@H]1CN(c2nc(N3CCOCC3)c3sc(-c4ccsc4)cc3n2)C[C@H](C)O1"
  relation_operator: "<"
  pIC50: 5.00
- compound: "C[C@@H]1CN(c2nc(N3CCOCC3)c3sc(-c4cn[nH]c4)cc3n2)C[C@H](C)O1"
  relation_operator: "="
  pIC50: 6.00
- compound: "C[C@@H]1CN(c2nc(N3CCOCC3)c3sc(-c4ccncc4)cc3n2)C[C@H](C)O1"
  relation_operator: "<"
  pIC50: 5.00
- compound: "C[C@@H]1CN(c2nc(N3CCOCC3)c3sc(-c4ccn[nH]4)cc3n2)C[C@H](C)O1"
  relation_operator: "="
  pIC50: 7.82
- compound: "C[C@@H]1CN(c2nc(N3CCOCC3)c3sc(-c4ccc[nH]4)cc3n2)C[C@H](C)O1"
  relation_operator: "="
  pIC50: 5.38
- compound: "Cc1c(-c2ccn[nH]2)sc2c(N3CCOCC3)nc(N3C[C@@H](C)O[C@@H](C)C3)nc12"
  relation_operator: "="
  pIC50: 6.71
- compound: "C[C@@H]1CN(c2nc(N3CCOCC3)c3sc(-c4ccco4)cc3n2)C[C@H](C)O1"
  relation_operator: "="
  pIC50: 5.66
- compound: "C[C@@H]1CN(c2nc(N3CCOCC3)c3sc(C(N)=O)cc3n2)C[C@H](C)O1"
  relation_operator: "="
  pIC50: 6.72
- compound: "C[C@@H]1CN(c2nc(N3CCOCC3)c3sc(-c4ccnn4C)cc3n2)C[C@H](C)O1"
  relation_operator: "="
  pIC50: 5.91
- compound: "C[C@@H]1CN(c2nc(N3CCOCC3)c3sc(-c4ccccc4O)cc3n2)C[C@H](C)O1"
  relation_operator: "<"
  pIC50: 5.00
- compound: "CCC(O)c1cc2nc(N3C[C@@H](C)O[C@@H](C)C3)nc(N3CCOCC3)c2s1 (stereo partly specified)"
  relation_operator: "="
  pIC50: 6.62

Entry source: ChEMBL document CHEMBL4049442
